- STUDY TARGET: human JAK1 (a.a. 837-1142) (Homo sapiens, UniProt P23458)
- Sequence (P23458 849-1154): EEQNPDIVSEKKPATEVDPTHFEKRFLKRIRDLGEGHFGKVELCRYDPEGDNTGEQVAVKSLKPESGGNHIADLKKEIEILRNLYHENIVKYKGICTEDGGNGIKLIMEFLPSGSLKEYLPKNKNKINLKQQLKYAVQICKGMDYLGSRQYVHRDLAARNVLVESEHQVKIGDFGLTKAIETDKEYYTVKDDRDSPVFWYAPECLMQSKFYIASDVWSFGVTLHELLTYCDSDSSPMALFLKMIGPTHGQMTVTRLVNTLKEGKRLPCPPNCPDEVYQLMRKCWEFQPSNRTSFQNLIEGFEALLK
- TEST DESCRIPTION: In vitro JAK kinase assay (HTRF, phosphorylation of biotinylated peptide), JAK1
- Format: biochemical
- CONDITION DESCRIPTION: Table B; 1 mM ATP; read-out: JAK1 IC50
Structures can show the parent of a compound that is named as a salt.
Could you please report measured IC50 for the items listed next?

Need IC50 of `N#CC[C@]1(n2cc(-c3ncnc4[nH]ccc34)cn2)C[C@H](N2CCN(C(=O)c3cc(F)cc(F)c3)CC2)C1` , thanks. < 10 nM

Need IC50 of N#CC[C@]1(n2cc(-c3ncnc4[nH]ccc34)cn2)C[C@H](N2CCN(C(=O)c3cncc(C(F)(F)F)n3)CC2)C1 [Example 14b] , thanks. < 10 nM

Need IC50 of N#CC[C@]1(n2cc(-c3ncnc4[nH]ccc34)cn2)C[C@H](N2CCN(C(=O)Nc3ccc(F)cc3C(F)(F)F)CC2)C1 [Example 3b, (trifluoroacetate) Salt] , thanks. 10 to 25 nM

Need IC50 of `CN(C)S(=O)(=O)N1CCN([C@H]2C[C@](CC#N)(n3cc(-c4ncnc5[nH]ccc45)cn3)C2)CC1` , thanks. < 10 nM

Need IC50 of `CN(C)Cc1cc(F)cc(CN2CCN([C@H]3C[C@](CC#N)(n4cc(-c5ncnc6[nH]ccc56)cn4)C3)CC2)c1` , thanks. < 10 nM

Need IC50 of `N#CC[C@]1(n2cc(-c3ncnc4[nH]ccc34)cn2)C[C@H](N2CCN(C(=O)c3ccnc(C(F)(F)F)n3)CC2)C1` , thanks. < 10 nM

Origin of values: patent US10640506B2
